Target: Cellular tumor antigen p53 (Homo sapiens)
Assay: Primary qHTS for small molecule compounds that upregulate eGFP-tagged delta133p53alpha (in N-terminal) cells. (AID 2060322);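 further: cells pre-induced with doxycycline then dosed without doxycycline; series mostly up to about 56 µM; nearly all actives have a fitted effect of over 75% in size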
Conditions: NCI-H358 eGFP-delta133p53alpha fluorescence, 24 h; hits give high values
Inconclusive results are not listed.
Use -10% as the dividing line for activation, with the line itself on the rule met side and lower values as rule not met.

Worked set:
COMPOUND | TARGET_OR_TEST_SYSTEM | QUALITATIVE_LABEL
O=C(Nc1cccc(C(=O)Nc2ccc(S(=O)(=O)O)c3cc(S(=O)(=O)O)cc(S(=O)(=O)O)c23)c1)Nc1cccc(C(=O)Nc2ccc(S(=O)(=O)O)c3cc(S(=O)(=O)O)cc(S(=O)(=O)O)c23)c1 | Cellular tumor antigen p53 (Homo sapiens) | rule met
O=C(O)c1cccnc1C(=O)O | Cellular tumor antigen p53 (Homo sapiens) | rule not met
COc1ccc(NC(=O)/C=C/c2ccc(Cl)cc2)cc1 | Cellular tumor antigen p53 (Homo sapiens) | rule not met

(Q) Could you tell me if the measured activation of CC(=O)N[C@H](Cc1c[nH]c2ccccc12)C(=O)OCc1cc(C(F)(F)F)cc(C(F)(F)F)c1 reaches -10% or more?
(A) rule met

(Q) Is activation for O=C(c1ccc(NS(=O)(=O)c2cccc3cccnc23)cc1)N1CCN(CC2CC2)CC1 at or above -10%?
(A) rule met

(Q) Does CN1CCN(C2=Nc3ccccc3Nc3ccc(OS(=O)(=O)C(F)(F)F)cc32)CC1 have a reported activation of at least -10%?
(A) rule not met

(Q) Please indicate if the recorded activation for C=C1C[C@]23C[C@H]1[C@@H](O)C[C@H]2[C@@]12C=C[C@H](O)[C@@](C)(C(=O)O1)[C@H]2[C@@H]3C(=O)O meets or exceeds -10%.
(A) rule not met

(Q) Say whether c1ccc2c(c1)CC(N1CCN(c3cccc4c3OCCO4)CC1)C2 shows activation of -10% or more.
(A) rule met

Reference for the values: PubChem BioAssay (NCATS)
